test system: HCC1569; experiment: cell number relative to DMSO (% of DMSO); higher = more cells (less growth inhibition / toxicity); conditions: concentration: 10 µM; 24 h
Binary call on cell number: Yes from 100 upward, No beneath that.

compound	qualitativeLabel
NC(Cn1cc(I)c(=O)[nH]c1=O)C(=O)O (configuration not stated)	Yes
C#C[C@]1(O)CC[C@H]2[C@@H]3CC[C@H]4Cc5nc6nc7ccccc7n6cc5C[C@]4(C)[C@H]3CC[C@@]21C	No

====

This section presents compounds with their documented H1.0 immunofluorescence intensity values.
system: HCC1569; assay: H1.0 immunofluorescence intensity relative to DMSO (% of DMSO); higher = stronger H1.0 induction, active = 140 or more; conditions: concentration: 10 µM; 24 h

compound	system	H1.0 immunofluorescence intensity
COc1ccc(-n2nc(C(F)(F)F)cc2-c2ccc(Cl)cc2)cc1	HCC1569	90.3 (inactive)
CC1OC(C[N+](C)(C)C)CS1.[I-] (stereo unspecified) [OXA-22 iodide]	HCC1569	95.2 (inactive)
CC(=O)c1c(O)c(C)c(O)c(Cc2c(O)c3c(c(C(=O)C=Cc4ccccc4)c2O)OC(C)(C)C=C3)c1O	HCC1569	104 (inactive)
Cl.NCC(O)c1cc(O)c(O)cc1F (stereo unspecified) [6-Fluoronorepinephrine hydrochloride]	HCC1569	83.2 (inactive)
COC1=C(OC)C(=O)C(=C2C(C)=C(C(=O)O)NC(c3ccc4c(n3)C(=O)C(N)=C(OC)C4=O)=C2N)C=C1	HCC1569	128 (inactive)
CCCCCC=CCC=CCC=CCCCCCCC(=O)NCCO [Anandamide (20:3,n-6)]	HCC1569	103 (inactive)
Br.CN1C2CC(OC(=O)C(CO)c3ccccc3)CC1C(O)C2 (stereo unspecified)	HCC1569	94.6 (inactive)
C=CCN1CC(C(=O)N(CCCN(C)C)C(=O)NCC)CC2c3cccc4[nH]cc(c34)CC21 (stereo unspecified)	HCC1569	102 (inactive)
Nc1ncnc2c1ccn2C1OC(CO)C(O)C1O (stereo unspecified)	HCC1569	70.1 (inactive)
C=CC12CN(C)C3C4COC(CC41)C1(C(=O)Nc4ccccc41)C32.Cl (stereo unspecified)	HCC1569	94.5 (inactive)
C[N+](C)(C)CCCCCCCCCC[N+](C)(C)C.[Br-].[Br-] [Decamethonium dibromide]	HCC1569	88.8 (inactive)
Cl.Cl.Clc1cccc(N2CCNCC2)c1 [1-(3-Chlorophenyl)piperazine dihydrochloride]	HCC1569	100 (inactive)
CCCCC(C#N)(Cn1cncn1)c1ccc(Cl)cc1 (stereo unspecified)	HCC1569	102 (inactive)
CC(=O)OC1CC2CCC3C(CCC4(C)C3CC([N+]3(C)CCCCC3)C4OC(C)=O)C2(C)CC1[N+]1(C)CCCCC1.[Br-].[Br-] (stereo unspecified)	HCC1569	102 (inactive)
COc1ccc2c(c1)[nH]c1c(C)nccc12	HCC1569	106 (inactive)
Cc1ccccc1-n1c(Cn2cnc3c(N)ncnc32)nc2cccc(C)c2c1=O	HCC1569	102 (inactive)

====

test system: TDF; experiment: cell number relative to DMSO (% of DMSO); higher = more cells (less growth inhibition / toxicity); details: concentration: 10 µM; 24 h

compound	system	cell number
NC(CCP(=O)(O)O)C(=O)O (racemic)	TDF	101
CC(C)C1C(=O)OC2CCN3CC=C(COC(=O)C(C)(O)C1(C)O)C23 (stereo not drawn) [Trichodesmine]	TDF	103
CC=C(C)C(=O)OC1CCC2(C)C3CCC4C5(O)CC(O)C6(O)C(CN7CC(C)CCC7C6(C)O)C5(O)CC42OC13O (stereo not drawn) [Cevadine]	TDF	99.4

====

test system: HCC1569; assay: cell number relative to DMSO (% of DMSO); higher = more cells (less growth inhibition / toxicity); details: concentration: 10 µM; 24 h
This section presents compounds with their documented cell number values.
endpointName: cell number

compound	endpointName	valueObserved
CCn1cc(C(=O)[O-])c(=O)c2ccc(C)nc21.[Na+] [Nalidixic acid sodium]	cell number	107
CN[C@@H]1Cc2cccc3[nH]c(=O)n(c23)C1.O=C(O)C=CC(=O)O	cell number	101
CCC1C2CC3C4N(C)c5ccccc5C45CC(C2C5O)N3C1O (stereo not given) [Ajmaline]	cell number	101
CC(C)(O)C1C2OC(=O)C1C1(O)CC3OC34C(=O)OC2C14C (stereo not given) [Picrotonin]	cell number	99.4
O=C(O)C1CCN1 [L-azetidine-2-carboxylic acid]	cell number	100

====

system: TDF; experiment: H1.0 immunofluorescence intensity relative to DMSO (% of DMSO); higher = stronger H1.0 induction, active = 120 or more; settings: concentration: 10 µM; 24 h
Classes used: True = active, False = inactive

compound	qualitativeLabel
COC1=CC(=O)OC(C=Cc2ccc3c(c2)OCO3)C1 (stereo not drawn)	False
CC12CCC3C(CCC4(O)CC(O)CCC34C=O)C1(O)CCC2C1=CC(=O)OC1 (stereo not drawn) [Strophantidin]	True
O=C(O)C=CC(=O)O.O=[N+]([O-])c1ccc2nc(N3CCNCC3)ccc2c1 [Quipazine, 6-nitro-, maleate]	False
O=C(O)C=CC(=O)O.O=C(O)C=CC(=O)O.c1ccc2nc(N3CCNCC3)ccc2c1 [Quipazine dimaleate]	False
CS(=O)(=O)O.S=C=Nc1cccc(C2(N3CCCCC3)CCCCC2)c1 [Metaphit methanesulfonate]	False
CCCCCC=CCC=CCC=CC=CC(CCCC(=O)O)OO (stereo not drawn)	False
Cc1ccccc1-n1c(Cn2cnc3c(N)ncnc32)nc2cccc(C)c2c1=O	False
COc1cc(=O)oc(C=CC=CC=CC(C)=CC2(C)OC(C)C(C)(O)C2O)c1C (stereo not drawn)	True
COc1ccc2c(c1)N1C(C=C(C)C)OOC(C)(C)CC3C1C2C(O)C1(O)C(=O)N2CCCC2C(=O)N31 (stereo not drawn)	False
C[C@]12CC[C@@H](O)C[C@@H]1CC[C@@H]1[C@@H]2CC[C@]2(C)[C@@H](O)CC[C@@H]12	False
O=C([O-])Cc1ccccc1.[Na+] [Sodium Phenylacetate]	False
CN(C)C(=O)C(CCN1CCC(O)(c2ccc(Cl)cc2)CC1)(c1ccccc1)c1ccccc1.Cl [Loperamide.HCl]	False
CN1C2CCC1CC(O)C2 (stereo not drawn)	False
CN1C2CCC1CC(OC(=O)C(CO)c1ccccc1)C2.CN1C2CCC1CC(OC(=O)C(CO)c1ccccc1)C2.O.O=S(=O)(O)O (stereo not drawn) [Atropine sulfate]	False
CC1CC(C)C(=O)C(C(O)CC2CC(=O)NC(=O)C2)C1 (stereo not drawn) [Cycloheximide]	False
CC1=CC2c3cccc4[nH]cc(c34)CC2N(C)C1 (stereo not drawn)	False
NC(=S)NN=Cc1coc2ccccc2c1=O.[Cl][Cu][Cl]	False
CC1OC1P(=O)([O-])[O-].[Na+].[Na+] (stereo not drawn) [Phosphomycin disodium]	False
CCC1(C2OC(C3OC(O)(CO)C(C)CC3C)CC2C)CCC(C2(C)CCC3(CC(O)C(C)C(C(C)C(OC)C(C)C(=O)[O-])O3)O2)O1.[Na+] (stereo not drawn)	True
CN1CC(CNC(=O)OCc2ccccc2)CC2c3cccc4c3c(cn4C)CC21 (stereo not drawn)	False
CC1=CC(=O)C2=C(C)CC(O)C3C(C)C(=O)OC3C12 (stereo not drawn)	False
CC1CCCC(O)CCCCCc2cc(O)cc(O)c2C(=O)O1 (stereo not drawn)	False
O.O=P1(N(CCCl)CCCl)NCCCO1 (stereo not drawn) [Cyclophosphamide monohydrate]	False

====

tested on: TDF; assay: cell number relative to DMSO (% of DMSO); higher = more cells (less growth inhibition / toxicity); conditions: concentration: 10 µM; 24 h
endpointName: cell number

compound	valueObserved
O=C1C=CC(=O)C=C1	99.8
c1ccc2c(c1)[nH]c1cnccc12	106
NCCc1c[nH]c2ccc(C(N)=O)cc12.O=C(O)C=CC(=O)O [5-Carboxamidotryptamine maleate]	103
COC(=O)C(N)CCCN=C(N)N[N+](=O)[O-].Cl [NG-Nitro-L-arginine methyl ester hydrochloride]	109
O=C1CSC(c2ccccc2Cl)c2cc(Cl)ccc2N1 (configuration not stated)	105
CCCN(CCC)C1CCc2cccc(O)c2C1 (racemic)	88.4
CCN1CC2(COC)CCC(OC)C34C5CC6C(OC)CC7(OCOC7(C(O)C23)C14)C5C6OC (configuration not stated)	105

====

system: HCC1569; test: cell number relative to DMSO (% of DMSO); higher = more cells (less growth inhibition / toxicity); conditions: concentration: 10 µM; 24 h
endpointName: cell number

compound	endpointName	valueObserved
COC1C(O)C(C)OC(OC2C(Oc3cccc4c(O)c5c(=O)oc6ccc(C)c7c(=O)oc(c34)c5c67)OC(C)C(O)C2O)C1O (centres undefined)	cell number	105
COC1=CC2C3Cc4ccc(OC)c(O)c4C2(CCN3C)CC1=O (centres undefined)	cell number	101
CN1CCc2cccc(Cl)c2CC1.Cl	cell number	103
CCN(CC)C(=O)NC1CC2c3cccc4[nH]cc(c34)CC2N(C)C1 (stereo not drawn) [R(+)-Terguride]	cell number	101
